measurement-kind: melting point

Value lookup for melting point; key = CN1Cc2c(C#CCO)ncn2-c2ccccc2C1=O 240 to 241 °C

====

Measured melting point values are reported for all entries that follow.

CC(=O)Nc1cc(OC(F)F)c(OC(F)F)cc1[N+](=O)[O-] = 65 to 67 °C
O=C(O)c1cc(OCCCOc2ccc(OCc3ccccc3)cc2)cc(OCCCOc2ccc(OCc3ccccc3)cc2)c1 = 139 to 140 °C
O=S(=O)(Nc1cccc(CCOCc2sc3ccccc3c2Cl)c1)C(F)(F)F = 85 to 87 °C

Can you share its melting point? I mean this compound: O=C(c1ccc(Cl)cc1)c1cccc([N+](=O)[O-])c1N1CCCCC1 141 °C

Request the reported melting point associated with COc1c(C)c(C)c(OC)c(N)c1N 107 to 110 °C

Given Nc1cccc2c1CN(C(CCC(=O)O)C(=O)O)C2=O (stereo unspecified) , state its recorded melting point. 183 to 185 °C

Entry Cc1ccc(NC(=O)NCC2(c3ccccc3)CCCCC2)cc1 has what melting point? 135 to 137 °C

Give the measured melting point of Oc1c(Cc2ccccc2)nc(Cc2ccccc2)c2c1COC2 . 204 to 205 °C

Returns the measured melting point for the input compound. Input: C=CCN1Cc2nc3c(cnn3CCCl)c(N)c2C1=O 198 to 199 °C
